Field: z-score. Provide a value for each of the compounds that follow.
Assay: basal S. cerevisiae growth modulation, no modifier, primary screen, OD600, strain BY4716, 24 h, basal condition (AID 1173)
Settings: OD600, 24 h, higher = more signal, called active from +8 up or from −8 down
Form: value (number only, do not type unit).

input: Give z-score for the following compound: CCCCCN1CC=CC23O[C@@H]4C=CCOC(=O)[C@@H]4[C@H]2C(=O)N(CCO)[C@@H]3C1=O (some centres undefined)
output: 0.201

input: Give z-score for the following compound: CCc1cccc(NC(=O)O[C@H]2[C@H](OC(=O)Nc3ccccc3)[C@H](OC(=O)Nc3ccccc3)[C@@H](OC)O[C@@H]2CO)c1
output: 0.885

input: Give z-score for the following compound: COCC1=C2[C@@H](CCc3ccccc3)OB(O)C[C@@H]2[C@@H]2C(=O)N(C)C(=O)[C@@H]2C1
output: -0.926

input: Give z-score for the following compound: C=C(COC)/C(=C/C[C@@H](OC(=O)c1ccncc1)c1ccccc1OCCO)c1cc(C(=O)OC)ccc1OC
output: -1.35

====

Field: composite z-score. Provide a value for each of the compounds that follow.
Molecular target: Neurogenic locus notch homolog protein 2 (Homo sapiens)
Test: Notch2 binders on small-molecule microarrays, primary screen, biochemical, small-molecule microarray, 635 nm fluorescence, stem cell growth factors (AID 1073)
Settings: Notch2 binding, higher = more signal
Form: value (number only, do not type unit).

input: Give composite z-score for the following compound: CC(C)CCC[C@@H](C)[C@H]1CC[C@@]2(C)C3=C(CC[C@]12C)[C@@]1(C)CC[C@H](OC(=O)c2ccccc2)C(C)(C)C1CC3 (some centres undefined)
output: 0.474

input: Give composite z-score for the following compound: COCCOC(=O)N1C(=O)[C@@]2(c3cc(C#CCNC(N)=O)ccc31)[C@H](c1ccc(O)cc1)N1[C@H](c3ccccc3)[C@H](c3ccccc3)OC(=O)[C@H]1[C@@H]2C(N)=O
output: -2.04

input: Give composite z-score for the following compound: CN(C)CCCC[C@@H]1NC(=O)[C@@H]2C[C@H](C(=O)O)[C@H](c3cccc(OCCO)c3)N2C1=O
output: -0.561

input: Give composite z-score for the following compound: C=C[C@H](C)[C@H](OC(=O)Nc1ccc(OC)cc1)c1ccc(OCCO)cc1
output: -1.34

input: Give composite z-score for the following compound: [N-]=[N+]=NCc1ccccc1[C@H]1OC(c2ccc(OCCCO)cc2)=N[C@@]1(Cc1ccccc1)C(=O)NCCN1CCOCC1
output: 1.49

input: Give composite z-score for the following compound: CCN(CC)c1ccc(N2CC=CC34O[C@@H]5C=CCCOC(=O)C5[C@H]3C(=O)N(CCO)[C@@H]4C2=O)cc1 (some centres undefined)
output: -0.894

input: Give composite z-score for the following compound: CN1C(=O)[C@@]2(Cc3ccccc3)N=C(c3ccc(OCCCO)cc3)O[C@H]2c2ccccc21
output: 0.921

input: Give composite z-score for the following compound: [N-]=[N+]=NC[C@H](Cc1ccccc1)NC(=O)c1ccccc1
output: -0.0596

input: Give composite z-score for the following compound: COCCOC(=O)N1C(=O)[C@@]2(c3cc(C#Cc4ccc(OC)cc4)ccc31)[C@H](C(=O)NC[C@H](O)c1ccccc1)[C@H]1C(=O)O[C@H](c3ccccc3)[C@H](c3ccccc3)N1[C@@H]2c1ccc(OCCO)cc1
output: 1.12

input: Give composite z-score for the following compound: CN1C=C(C(=O)OCCS(C)(=O)=O)C(C(=O)OCCS(C)(=O)=O)=CC(c2ccc(CO)cc2)=CC1c1cccs1 (centres undefined)
output: -0.0588

input: Give composite z-score for the following compound: CCOC(=O)C[C@H]1[C@H](OC(=O)c2ccc(C(=O)c3ccccc3)cc2)[C@@H](NC(=O)CC(C)C)c2cc(OCCCO)ccc2N1C(=O)Cc1ccc(OC)cc1
output: 0.342

input: Give composite z-score for the following compound: O=C1O[C@H](c2ccccc2)[C@H](c2ccccc2)N2[C@H]1[C@@H](C(=O)N1CCCCCCC1)[C@]1(C(=O)Nc3ccc(C#CC4(O)CCCCCC4)cc31)[C@H]2c1ccccc1OCCO
output: 1.83

input: Give composite z-score for the following compound: C=CCC(OC(C)=O)[C@@H]1[C@@H](N(Cc2cccc3ccccc23)C(=O)c2ccc(-c3ccccc3)cc2)c2cc(OCCCO)ccc2N1C(=O)c1ccc(-c2ccccc2)cc1 (some centres undefined)
output: 0.369

input: Give composite z-score for the following compound: C=CC[C@H](OC(=O)Nc1ccc(SC)cc1)c1ccc(OCCO)cc1
output: -1.2

====

Experiment: small-molecule binders of probe aNOTCH2, primary screen, biochemical, small-molecule microarray, 635/667 nm fluorescence (AID 1121);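 also: score merges feature fluorescence read at 667 nm with its signal to noise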
Conditions: higher = more signal
measured metric: composite z-score

input: Give composite z-score for the following compound: Cc1ccc(S[C@]2(C(=O)NC(C)C)CC(=O)N(Cc3ccccc3Cl)[C@@H]2c2ccc(CO)cc2)cc1
output: -0.146

input: Give composite z-score for the following compound: O=C1C2C=CC(C(O)c3ccc4c(c3)OCO4)N(Nc3ccccc3)C2C(=O)N1c1ccccc1 (stereo not given)
output: 0.0247

input: Give composite z-score for the following compound: COc1cc(CO)cc(I)c1O[C@H]1C=C(C(=O)NCCO)C[C@@H](NCC2CCCCC2)[C@@H]1O
output: -0.104

input: Give composite z-score for the following compound: COCCOC(=O)N1C(=O)[C@@]2(c3cc(C#CCCO)ccc31)[C@H](c1ccccc1OCCO)N1[C@H](c3ccccc3)[C@H](c3ccccc3)OC(=O)[C@H]1[C@@H]2C(=O)N1CCCCCCC1
output: 0.333

input: Give composite z-score for the following compound: C=C(/C(=C/C[C@@H](OC(C)=O)c1ccc(CO)o1)c1cc(C(=O)OC)ccc1OC)C(C)C
output: -0.124

input: Give composite z-score for the following compound: O=C(CS)NCCCCCNC(=O)[C@@H]1C[C@@H]2C(=O)N[C@@H](Cc3ccccc3)C(=O)N2[C@@H]1c1cccc(OCCO)c1
output: -0.446

input: Give composite z-score for the following compound: CC(C)(C)OC(=O)CC[C@]12N=C(c3ccc(OCCCO)cc3)O[C@H]1c1ccccc1N(Cc1ccccc1)C2=O
output: -0.0456

input: Give composite z-score for the following compound: CC(C)[Si]1(C(C)C)OCc2cc(-c3ccc(-c4ccc(Cl)c(Cl)c4)o3)nc(CCc3ccccc3)c21
output: -0.171

input: Give composite z-score for the following compound: C=CCNC(=O)[C@H]1[C@@H]2C(=O)O[C@@H](c3ccccc3)[C@@H](c3ccccc3)N2[C@@H](c2ccc(OCCO)cc2)[C@]12C(=O)Nc1ccc(C#CCNC(N)=O)cc12
output: -0.0624

input: Give composite z-score for the following compound: COc1ccc([Si](C)(C)[C@@H]2[C@@H](CC(=O)N3Cc4ccccc4C[C@H]3CO)O[C@]3(C(=O)N(c4ccccc4)c4ccccc43)[C@H]2C)cc1
output: 0.0018

input: Give composite z-score for the following compound: CN1C(=O)C2C=CC(C(O)c3ccc(F)cc3)N(NC(=O)OC(C)(C)C)C2C1=O (stereo not given)
output: -0.0317

input: Give composite z-score for the following compound: [N-]=[N+]=Nc1ccccc1C[C@@]1(C(=O)O)N=C(c2ccc(OCCCO)cc2)O[C@@H]1c1ccccc1N=[N+]=[N-]
output: 0.13

input: Give composite z-score for the following compound: COC(=O)C(CC#Cc1ccc2c(c1)[C@]1(C(=O)N2)[C@H](c2ccc(O)cc2)N2[C@H](c3ccccc3)[C@H](c3ccccc3)OC(=O)[C@H]2[C@@H]1C(=O)N1CCCCCCC1)C(=O)OC
output: -0.0586

input: Give composite z-score for the following compound: Cc1ccccc1C(O)C1C=CC2C(=O)N(c3ccccc3)C(=O)C2N1Nc1ccc([N+](=O)[O-])cc1 (stereo not given)
output: -0.0796

input: Give composite z-score for the following compound: C=C[C@@H](C)[C@H](O)c1ccc(OCCO)cc1
output: -0.206

input: Give composite z-score for the following compound: Cc1ccc(S[C@]2(C(=O)NCc3ccccc3)CC(=O)N(Cc3cc(C(F)(F)F)cc(C(F)(F)F)c3)[C@@H]2c2ccc(CO)cc2I)cc1
output: -0.161

input: Give composite z-score for the following compound: O=C1[C@@H]2[C@@H](CC(COc3ccccc3)=C3[C@@H](CCc4ccccc4)OB(O)C[C@@H]32)C(=O)N1Cc1ccccc1
output: -0.13

input: Give composite z-score for the following compound: CN(C)CCCC[C@@H]1NC(=O)[C@@H]2C[C@H](C(=O)O)[C@H](c3cccc(OCCO)c3)N2C1=O
output: -0.116

input: Give composite z-score for the following compound: O=C1N[C@@H](Cc2ccccc2)C(=O)N2[C@@H]1C[C@@H](C(=O)O)[C@H]2c1ccc(O)cc1
output: 0.0712

input: Give composite z-score for the following compound: CN(C)CCCCNC(=O)[C@H]1C[C@H]2C(=O)N[C@@H](CCCC[N+](C)(C)C)C(=O)N2[C@H]1c1ccc(O)cc1
output: 0.2

input: Give composite z-score for the following compound: COCCOC(=O)N1C(=O)[C@@]2(c3cc(C#Cc4ccc(OC)cc4)ccc31)[C@H](C(=O)NC[C@H](O)c1ccccc1)[C@H]1C(=O)O[C@H](c3ccccc3)[C@H](c3ccccc3)N1[C@@H]2c1ccc(OCCO)cc1
output: -0.146

input: Give composite z-score for the following compound: COc1ccc([Si](C)(C)[C@H]2[C@H](CC(=O)N3CCC[C@H]3CO)O[C@@]3(C(=O)N(Cc4ccc(N5CCC5=O)cc4)c4ccccc43)[C@@H]2C)cc1
output: -0.147

input: Give composite z-score for the following compound: CCOC(=O)C1=CCN(S(=O)(=O)c2ccc(C)cc2)C1c1ccccc1 (stereo not given)
output: -0.0607

input: Give composite z-score for the following compound: COCCCNC(=O)[C@@]1(Sc2ccc(C)cc2)CC(=O)N(C(C)C)[C@@H]1c1ccc(CO)cc1I
output: -0.164

input: Give composite z-score for the following compound: C[C@]1(C(=O)NCC(F)(F)F)c2ccccc2C(=O)N(Cc2ccccc2)[C@H]1c1ccc(CO)cc1
output: -0.123

input: Give composite z-score for the following compound: CC(C)N1CC=CC23O[C@@H]4/C=C\CCCOC(=O)C4[C@H]2C(=O)N(CCCCCCO)[C@@H]3C1=O (stereo not given in full)
output: -0.0895

input: Give composite z-score for the following compound: CC(C)C(=C=CC[C@H](O)c1cccc(OCCO)c1)CCO
output: -0.14

input: Give composite z-score for the following compound: COC(=O)C1=CC(CCCO)=CC(c2ccc(CN3CCCC3)cc2)N(Cc2cc3c(cc2Br)OCO3)C=C1C(=O)OC (stereo not given)
output: 0.135

input: Give composite z-score for the following compound: C=C(CCCC)C(=O)CC[C@@H](OC(=O)c1cccnc1)c1ccc(OCCO)cc1
output: -0.0357

input: Give composite z-score for the following compound: CN1C=C(C(=O)OCCS(C)(=O)=O)C(C(=O)OCCS(C)(=O)=O)=CC(c2ccc(CO)cc2)=CC1c1cccs1 (stereo not given)
output: -0.0936
